Target: T1, BAFFR:Fc fusion protein (human, UniProt Q96RJ3 1-78, biotinylated in the competition ELISA)
T1 construct: Bought reagent; also called human BAFFR:Fc; bio-BAFFR:Fc; not shown: Fc part of the bought fusion protein (Alexis / Axxora)
T1 sequence: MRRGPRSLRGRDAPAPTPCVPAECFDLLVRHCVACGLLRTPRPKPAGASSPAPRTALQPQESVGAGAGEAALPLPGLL
Assay: BLyS/BAFFR:Fc competition ELISA; antibody titrated, BLyS coated
Procedure: 96-well MaxiSorp plates are coated over night at 4° C. with human soluble BLyS. […] The bound phosphatase was detected by adding a solution containing p-nitrophenyl phosphate in diethanolamin (Sigma). The color reaction was stopped after ca. 20 minutes with an equal volume of 2N sodium hydroxide and the absorbance was measured at 405 nm on a plate reader (SpectraMax 190, Molecular Devices).
test.readout: IC50 (nM)
Give bare numbers, in nM.

// lookup IC50 for MOR07349 Fab (Fab, V domains shown, Human Fab format) VH: QVQLQQSGPGLVKPSQTLSLTCAISGDSVSSNSAAWGWIRQSPGRGLEWLGRIYYRSKWWNDYAVSVKSRITINPDTSKNQFSLQLNSVTPEDTAVYYCARYDWVPKIGVFDGWGQGTLVTVSS VL: DIVLTQSPATLSLSPGERATLSCRASQMIDLRYLSWYQQKPGQAPRLLIYGSSSRATGVPARFSGSGSGTDFTLTISSLEPEDFAVYYCQQFYSSPLTFGQGTKVEIK
0.44
